Values from patent US8916565B2

TESTED_SYSTEM: human NaV subtype, like NaV 1.7 (Homo sapiens, UniProt Q15858)
Sequence (Q15858 whole entry): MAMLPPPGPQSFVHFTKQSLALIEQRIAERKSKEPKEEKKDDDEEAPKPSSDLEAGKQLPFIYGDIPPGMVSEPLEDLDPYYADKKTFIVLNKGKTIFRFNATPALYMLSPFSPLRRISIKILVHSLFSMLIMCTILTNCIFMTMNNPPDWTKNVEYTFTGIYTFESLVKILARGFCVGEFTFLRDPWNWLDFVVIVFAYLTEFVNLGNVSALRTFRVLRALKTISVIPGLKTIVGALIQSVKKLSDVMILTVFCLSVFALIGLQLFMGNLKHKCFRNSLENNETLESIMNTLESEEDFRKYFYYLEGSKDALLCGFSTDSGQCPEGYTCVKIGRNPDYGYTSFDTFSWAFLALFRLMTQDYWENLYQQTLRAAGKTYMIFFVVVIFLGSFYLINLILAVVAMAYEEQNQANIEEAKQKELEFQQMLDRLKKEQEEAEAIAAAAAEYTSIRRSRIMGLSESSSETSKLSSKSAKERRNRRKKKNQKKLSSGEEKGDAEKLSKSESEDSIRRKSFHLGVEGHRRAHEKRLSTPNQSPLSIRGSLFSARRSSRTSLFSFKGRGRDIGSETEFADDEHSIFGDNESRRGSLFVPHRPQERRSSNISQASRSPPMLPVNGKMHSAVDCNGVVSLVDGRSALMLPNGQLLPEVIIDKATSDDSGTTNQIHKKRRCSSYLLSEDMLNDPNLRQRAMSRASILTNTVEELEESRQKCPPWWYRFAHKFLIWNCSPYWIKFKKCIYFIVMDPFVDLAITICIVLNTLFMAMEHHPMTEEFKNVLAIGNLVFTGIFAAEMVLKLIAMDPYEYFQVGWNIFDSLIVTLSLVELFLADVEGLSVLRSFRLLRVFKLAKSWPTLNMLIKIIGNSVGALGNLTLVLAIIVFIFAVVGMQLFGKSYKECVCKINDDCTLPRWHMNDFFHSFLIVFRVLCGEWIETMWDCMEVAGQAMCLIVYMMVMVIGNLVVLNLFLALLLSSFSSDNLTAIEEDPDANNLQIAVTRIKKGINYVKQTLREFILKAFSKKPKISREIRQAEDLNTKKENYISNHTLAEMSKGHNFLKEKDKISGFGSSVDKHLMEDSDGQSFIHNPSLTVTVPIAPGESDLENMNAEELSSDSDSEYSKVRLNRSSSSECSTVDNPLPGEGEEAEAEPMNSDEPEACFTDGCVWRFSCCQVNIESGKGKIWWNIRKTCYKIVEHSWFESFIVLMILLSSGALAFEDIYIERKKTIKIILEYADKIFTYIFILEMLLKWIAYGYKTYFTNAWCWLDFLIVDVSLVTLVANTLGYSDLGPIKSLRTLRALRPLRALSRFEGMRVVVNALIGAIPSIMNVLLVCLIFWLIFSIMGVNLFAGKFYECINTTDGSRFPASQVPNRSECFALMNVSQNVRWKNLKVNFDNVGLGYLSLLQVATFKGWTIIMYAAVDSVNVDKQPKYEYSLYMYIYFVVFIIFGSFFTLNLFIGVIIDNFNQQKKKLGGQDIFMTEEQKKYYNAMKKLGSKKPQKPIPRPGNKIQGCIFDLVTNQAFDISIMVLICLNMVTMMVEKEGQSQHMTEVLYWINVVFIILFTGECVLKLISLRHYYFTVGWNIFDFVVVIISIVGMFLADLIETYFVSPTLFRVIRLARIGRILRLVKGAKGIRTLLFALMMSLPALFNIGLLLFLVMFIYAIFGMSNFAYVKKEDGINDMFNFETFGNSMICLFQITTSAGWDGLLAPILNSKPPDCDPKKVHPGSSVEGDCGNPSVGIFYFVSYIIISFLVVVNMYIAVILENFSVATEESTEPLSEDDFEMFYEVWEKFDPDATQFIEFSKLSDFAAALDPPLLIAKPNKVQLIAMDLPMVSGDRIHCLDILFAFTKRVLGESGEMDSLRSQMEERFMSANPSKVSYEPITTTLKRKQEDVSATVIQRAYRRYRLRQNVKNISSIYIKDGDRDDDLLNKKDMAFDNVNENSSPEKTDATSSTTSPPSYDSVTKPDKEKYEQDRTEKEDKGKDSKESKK
ASSAY_NOTES: E-VIPR optical membrane potential assay with electrical stimulation
CONDITION_DETAILS: active against one or more sodium channels; Table 3 does not name the assay or NaV subtype; read-out: Binned Activity Data (IC50)
MEASURED_PARAMETER: IC50

Could you report IC50 for every entry in the following list?
1. Cc1cc(C(=O)N2CCC3(CC2)c2cc(C(=O)C(F)(F)F)cn2C(C)(C)CN3C)ccc1OC(C)C [Compound 231]
2. Cc1cc(C(=O)N2CCC3(CC2)c2ccc(C(F)(F)F)n2CCN3C)ccc1OCCO [Compound 335]
3. COc1cc(C(=O)N2CCC3(CC2)c2c(Cl)cc(C(F)(F)F)n2CCN3C)ccc1OCC(C)(C)F [Compound 258]
4. CC(C)Oc1ccc(C(=O)N2CCC3(CC2)c2ccc(C(=O)C(F)(F)F)n2C[C@H](C)N3C)c(F)c1 [Compound 695]

Marked response:
> 5 µM
≤ 2 µM
≤ 2 µM
≤ 2 µM

Could you report IC50 for every entry in the following list?
1. CN1CCn2c(C(F)(F)F)ccc2C12CCN(C(=O)c1ccc(Cl)cc1)CC2 [Compound 403]
2. COc1cc(C(=O)N2CCC3(CC2)c2ccc(C(=O)N4CCC(C(C)C)CC4)n2CCN3C)ccc1OC(C)C [Compound 622]
3. COc1ccc(C(=O)N2CCC3(CC2)NCCn2c(C(F)(F)F)ccc23)cc1 [Compound 497]
4. CC(C)Oc1ccc(C(=O)N2CCC3(CC2)c2ccc(C(=O)C(F)(F)F)n2C(C)(C)CN3C)cc1F [Compound 16]
5. CC(=O)c1ccc2n1CCN(C)C21CCN(C(=O)c2ccc(OCc3ccccc3)cc2)CC1 [Compound 604]
6. CN1CCn2c(C(F)(F)F)ccc2C12CCN(C(=O)c1ccnc3ccccc13)CC2 [Compound 49]
7. CCOC(=O)N1CCn2c(C#N)ccc2C12CCN(C(=O)c1ccc(OC(C)C)c(Cl)c1)CC2 [Compound 296]

Marked response:
["> 5 µM", "2 to 5 µM", "> 5 µM", "2 to 5 µM", "≤ 2 µM", "≤ 2 µM", "≤ 2 µM"]

Could you report IC50 for every entry in the following list?
1. Cc1nc(C(=O)N2CCC3(CC2)c2ccc(C(F)(F)F)n2CCN3C)ccc1OC(C)C [Compound 200]
2. CC[C@H](C)Oc1ccc(C(=O)N2CCC3(CC2)c2ccc(C(F)(F)F)n2CCN3C)cc1OC [Compound 525]
3. COc1cc(C(=O)N2CCC3(CC2)c2ccc(C(F)(F)F)n2CCN3C)ccc1OC(C)C [Compound 443]
4. CN1CCn2c(C(=O)C(F)(F)F)ccc2C12CCN(C(=O)c1ccc(-c3ccccc3)cn1)CC2 [Compound 453]
5. Cc1cc(C(=O)N2CCC3(CC2)c2ccc(Cl)n2CCN3C)ccc1OC(C)C [Compound 710]

Marked response:
1. ≤ 2 µM
2. ≤ 2 µM
3. ≤ 2 µM
4. 2 to 5 µM
5. ≤ 2 µM

Could you report IC50 for every entry in the following list?
1. CN1CCn2c(C(F)(F)F)ccc2C12CCN(C(=O)c1cccnc1Oc1ccccc1)CC2 [Compound 422]
2. CCCCOc1cc(C(=O)N2CCC3(CC2)NCCn2c(C(F)(F)F)ccc23)ccc1OC [Compound 241]
3. COCCN1CCn2c(C(F)(F)F)ccc2C12CCN(C(=O)c1ccc(C(C)(C)O)cc1)CC2 [Compound 701]
4. COc1cc(C(=O)N2CC[C@@]3(c4ccc(C(F)(F)F)n4CCN3C)[C@@H](C)C2)ccc1OC(C)C [Compound 429]
5. CC(C)Oc1ccc(C(=O)N2CCC3(CC2)NCCn2c(C(F)(F)F)ccc23)cc1Cl [Compound 135]
6. COc1nc(C(=O)N2CCC3(CC2)c2ccc(C(=O)C(F)(F)F)n2CCN3C)ccc1OC(C)C [Compound 357]

Marked response:
1: ≤ 2 µM; 2: > 5 µM; 3: ≤ 2 µM; 4: 2 to 5 µM; 5: ≤ 2 µM; 6: ≤ 2 µM
